Molecular target: 4'-phosphopantetheinyl transferase ffp (Bacillus subtilis) (UniProt Q9F4F7)
Assay: qHTS Assay for Inhibitors of Bacillus subtilis Sfp phosphopantetheinyl transferase (PPTase);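 further: the enzyme is Sfp with the accession as filed and its product quenches rhodamine fluorescence; 0% = enzyme reaction without inhibitor and -100% = no enzyme wells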
Settings: Biochemical Sfp PPTase activity
Source text: Assay Submitter: Michael Burkart, University of California, San Diego Screening Center PI: Austin, C.P. Screening Center: NIH Chemical Genomics Center [NCGC] […] In search of small molecule Sfp-PPTase inhibitors, a fluorescence quenching assay was developed for detection of Bacillus subtilis Sfp-PPTase enzymatic activity in a miniaturized high-throughput format. […]
Screen size: about 310,000 compounds; about 11,000 (3.5%) were called active. Not shown: some 4% with an inconclusive outcome. Only a selection was taken, and actives are over-represented in it overall.
measured attribute: largest response in the series, negative = inhibition (%)

{"molecule": "COc1ccc(/C=C(\\C#N)c2c[nH]c3ccccc23)cc1", "experimental system": "4'-phosphopantetheinyl transferase ffp (Bacillus subtilis) (UniProt Q9F4F7)", "unit text": "%", "numeric value": 10.3}
{"molecule": "CN(C(=O)COC(=O)c1nc(Cl)ccc1Cl)C1CCS(=O)(=O)C1 (stereo not drawn)", "experimental system": "4'-phosphopantetheinyl transferase ffp (Bacillus subtilis) (UniProt Q9F4F7)", "unit text": "%", "numeric value": 11}
{"molecule": "CCC(C)Sc1nc2c(cnn2-c2ccc(F)cc2)c(=O)[nH]1 (stereo not drawn)", "experimental system": "4'-phosphopantetheinyl transferase ffp (Bacillus subtilis) (UniProt Q9F4F7)", "unit text": "%", "numeric value": -3.22}
{"molecule": "C[C@]12CC[C@@H]3C(=CCc4cc(O)ccc43)[C@@H]1CCC2=O", "experimental system": "4'-phosphopantetheinyl transferase ffp (Bacillus subtilis) (UniProt Q9F4F7)", "unit text": "%", "numeric value": -11.9}
{"molecule": "NC(=O)c1oc2ccccc2c1NC(=O)Cc1ccccc1", "experimental system": "4'-phosphopantetheinyl transferase ffp (Bacillus subtilis) (UniProt Q9F4F7)", "unit text": "%", "numeric value": 0.75}
{"molecule": "COc1ccccc1CN1CCN(C(c2ccccc2)c2ccccc2)CC1", "experimental system": "4'-phosphopantetheinyl transferase ffp (Bacillus subtilis) (UniProt Q9F4F7)", "unit text": "%", "numeric value": -9.22}
{"molecule": "C=C1CCN(C(CC(C)C)C(=O)NCc2cc(OC)c(OC)c(OC)c2)S(=O)(=O)c2ccccc21 (stereo not drawn)", "experimental system": "4'-phosphopantetheinyl transferase ffp (Bacillus subtilis) (UniProt Q9F4F7)", "unit text": "%", "numeric value": -15.6}
{"molecule": "O=C(O)CN1c2cccc3cccc(c23)S1(=O)=O", "experimental system": "4'-phosphopantetheinyl transferase ffp (Bacillus subtilis) (UniProt Q9F4F7)", "unit text": "%", "numeric value": -16.8}
{"molecule": "CCOC(=O)CCc1c(C)c(C#N)c2[nH]c3ccccc3n2c1=O", "experimental system": "4'-phosphopantetheinyl transferase ffp (Bacillus subtilis) (UniProt Q9F4F7)", "unit text": "%", "numeric value": -12.3}
{"molecule": "O=C(Nc1ncc([N+](=O)[O-])s1)C1COc2ccccc2O1 (stereo not drawn)", "experimental system": "4'-phosphopantetheinyl transferase ffp (Bacillus subtilis) (UniProt Q9F4F7)", "unit text": "%", "numeric value": -25.4}
{"molecule": "COc1ccc2c(CC(=O)N3CCc4cc(OC)c(OC)cc4C3)coc2c1", "experimental system": "4'-phosphopantetheinyl transferase ffp (Bacillus subtilis) (UniProt Q9F4F7)", "unit text": "%", "numeric value": 1}
{"molecule": "Cc1cc(=O)[nH]c(N/N=C/c2c(C)nn(-c3ccccc3Cl)c2Cl)n1", "experimental system": "4'-phosphopantetheinyl transferase ffp (Bacillus subtilis) (UniProt Q9F4F7)", "unit text": "%", "numeric value": -9.72}
{"molecule": "Cn1c(SCC(=O)N2CCCC2)nnc1-c1cccs1", "experimental system": "4'-phosphopantetheinyl transferase ffp (Bacillus subtilis) (UniProt Q9F4F7)", "unit text": "%", "numeric value": 5.11}
{"molecule": "COc1ccc2c(c1)O[C@@H](c1ccc3c(c1)OCO3)[C@H](OC(=O)NCCc1ccc(OC)c(OC)c1)C2=O", "experimental system": "4'-phosphopantetheinyl transferase ffp (Bacillus subtilis) (UniProt Q9F4F7)", "unit text": "%", "numeric value": 6.18}
{"molecule": "Cc1ccc(-c2nn(-c3cccc(F)c3)cc2CNCCc2ccncc2)o1", "experimental system": "4'-phosphopantetheinyl transferase ffp (Bacillus subtilis) (UniProt Q9F4F7)", "unit text": "%", "numeric value": -5}
{"molecule": "Cc1nc2cc(C(F)(F)F)ccc2n1CCNc1nc(-c2cc(Cl)c(N)c(Cl)c2)cs1", "experimental system": "4'-phosphopantetheinyl transferase ffp (Bacillus subtilis) (UniProt Q9F4F7)", "unit text": "%", "numeric value": 9.07}
{"molecule": "O=S(=O)(/N=C(/Nc1ccccn1)c1ccccc1)c1ccc(Cl)cc1", "experimental system": "4'-phosphopantetheinyl transferase ffp (Bacillus subtilis) (UniProt Q9F4F7)", "unit text": "%", "numeric value": 27.1}
{"molecule": "Nc1c(Cl)cc(-c2csc(N3CCCC3c3nc4cc(Cl)c(Cl)cc4n3CCOCCO)n2)cc1Cl (stereo not drawn)", "experimental system": "4'-phosphopantetheinyl transferase ffp (Bacillus subtilis) (UniProt Q9F4F7)", "unit text": "%", "numeric value": -23.5}
{"molecule": "CN(Cc1ccccc1)C(=O)C1CCCN(c2ncnc3c2nc2n3CCCCC2)C1 (stereo not drawn)", "experimental system": "4'-phosphopantetheinyl transferase ffp (Bacillus subtilis) (UniProt Q9F4F7)", "unit text": "%", "numeric value": -5.59}
{"molecule": "N=C(N)SCc1cccc2ccccc12", "experimental system": "4'-phosphopantetheinyl transferase ffp (Bacillus subtilis) (UniProt Q9F4F7)", "unit text": "%", "numeric value": -0.359}
{"molecule": "O=C(N/N=C/c1cc2c(cc1Br)OCO2)C1COc2ccccc2O1 (stereo not drawn)", "experimental system": "4'-phosphopantetheinyl transferase ffp (Bacillus subtilis) (UniProt Q9F4F7)", "unit text": "%", "numeric value": 0.904}
{"molecule": "CCCN1CCN(C(=O)CCCNC(=O)c2ccc(Cl)cc2)CC1", "experimental system": "4'-phosphopantetheinyl transferase ffp (Bacillus subtilis) (UniProt Q9F4F7)", "unit text": "%", "numeric value": 8.54}
{"molecule": "Cc1ccc(/C=C2\\SC(=S)N(CCC(=O)Nc3ccc(O)cc3)C2=O)cc1", "experimental system": "4'-phosphopantetheinyl transferase ffp (Bacillus subtilis) (UniProt Q9F4F7)", "unit text": "%", "numeric value": 15.8}
{"molecule": "Cc1c(-c2cccc(Cl)c2)nc2ccccc2c1C(=O)OCC(=O)N(C)C1CCS(=O)(=O)C1 (stereo not drawn)", "experimental system": "4'-phosphopantetheinyl transferase ffp (Bacillus subtilis) (UniProt Q9F4F7)", "unit text": "%", "numeric value": 1.32}
{"molecule": "CCCCC(C(=O)NC(C)(C)C)N(Cc1ccccc1)C(=O)c1snc(C(N)=O)c1N (stereo not drawn)", "experimental system": "4'-phosphopantetheinyl transferase ffp (Bacillus subtilis) (UniProt Q9F4F7)", "unit text": "%", "numeric value": 3.56}
{"molecule": "Cc1ccc(S(=O)(=O)N2CCC(C(=O)NCC3CCCO3)CC2)cc1 (stereo not drawn)", "experimental system": "4'-phosphopantetheinyl transferase ffp (Bacillus subtilis) (UniProt Q9F4F7)", "unit text": "%", "numeric value": 21.8}
{"molecule": "Cc1ccccc1Cn1c(=O)[nH]c2ccccc21", "experimental system": "4'-phosphopantetheinyl transferase ffp (Bacillus subtilis) (UniProt Q9F4F7)", "unit text": "%", "numeric value": -2.4}
{"molecule": "CS(=O)(=O)c1ccc2nc(NC(=O)CN3CCCCCC3)sc2c1", "experimental system": "4'-phosphopantetheinyl transferase ffp (Bacillus subtilis) (UniProt Q9F4F7)", "unit text": "%", "numeric value": -29.2}

====

Measured largest response in the series, negative = inhibition, listed per entry.
Target: 4'-phosphopantetheinyl transferase ffp (Bacillus subtilis)
Experiment: qHTS Assay for Inhibitors of Bacillus subtilis Sfp phosphopantetheinyl transferase (PPTase);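 further: the enzyme is Sfp with the accession as filed and its product quenches rhodamine fluorescence; 0% = enzyme reaction without inhibitor and -100% = no enzyme wells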
Settings: Biochemical Sfp PPTase activity
The whole screen tested about 310,000 compounds, of which about 11,000 (3.5%) were called active. Another 4% or so got no clear call; they are omitted. The full list was thinned out, with actives kept by preference.
measured attribute: largest response in the series, negative = inhibition (%)

{"compound": "Cc1cc(Cl)nc(NC(=O)Nc2cccc(Cl)c2)n1", "numeric value": -3.29}
{"compound": "Cc1ccccc1Nc1nc(-c2cccnc2)cs1", "numeric value": -24.9}
{"compound": "NS(=O)(=O)c1ccc(CCNS(=O)(=O)c2cccc3cccnc23)cc1", "numeric value": 2.24}
{"compound": "COc1ccc(C(=O)Nc2cc(C)c(NC(=O)c3ccccc3OC)cn2)cc1", "numeric value": -0.964}
{"compound": "S=c1[nH]nc(-c2cccs2)n1/N=C/c1cn(-c2ccccc2)nc1-c1ccc(Cl)cc1", "numeric value": -17.4}
{"compound": "CCc1cccc(C)c1N1C(=O)CN(Cc2ccccc2)C1=S", "numeric value": 13.8}
{"compound": "CCc1cc(=O)oc2c(C)c(OCC(=O)N3CC[C@@]4(O)CCCC[C@H]4C3)ccc12", "numeric value": 6.44}
{"compound": "CCC(C)NC(=O)C1c2ccccc2C(=O)N1Cc1ccccc1 (stereo not given)", "numeric value": 0.907}
{"compound": "Cc1onc(-c2ccccc2)c1C(=O)N1CCN(S(=O)(=O)c2ccccc2C(F)(F)F)CC1", "numeric value": 21.8}
{"compound": "Cc1ccc(C(=O)NCCc2nnc(SCC(=O)Nc3cccc(C(=O)O)c3)n2C)cc1", "numeric value": 10.4}
